Please go through the items and note down their normalized growth.
test_summary: chemical genetic growth profiling, strain panel (AID 1159580);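 note: tested at 20 µM; growth read once vehicle control cultures reached saturation at 30 °C; 1 = growth at the plate median or of vehicle wells; lower values mean less growth of the strain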
cond: S. cerevisiae deletion strains, growth OD, locus YGL167C, strain pmr1, stronger effect = lower value
Among all 5,500 compounds or so, about 2,000 (36%) were called active. Not shown: some 18% with an inconclusive outcome. The list shows a part of the results.
The response must contain the number and no unit.

Query block: Field request: normalized growth | item: COc1ccc(C2Sc3ccccc3N(CCN(C)C)C(=O)C2OC(C)=O)cc1 (centres undefined)
Result block: 1.01

Query block: How about CC(=O)O[C@H]1CC[C@@]2(C)C(C[C@@H](OC(C)=O)[C@@]3(C)C4=CC(=O)O[C@@H](c5ccoc5)[C@]4(C)CCC23)C1(C)C (some centres undefined) ?
Result block: 1.01

Query block: Now this one: "CN(C)CCCN1c2ccccc2CCc2ccc(Cl)cc21"
Result block: 1

Query block: Now consider CC(=O)O[C@@H]1C=C[C@@]2(C)C(C[C@@H](OC(C)=O)[C@@]3(C)C4=CC(=O)O[C@@H](c5ccoc5)[C@]4(C)CCC23)C1(C)C (some centres undefined) and answer again.
Result block: 0.988

Query block: Would you kindly repeat that for CC(=O)O[C@@H]1CC2C(C)(C)[C@H](O)C=C[C@]2(C)C2CC[C@]3(C)C(=CC(=O)O[C@H]3c3ccoc3)[C@@]21C (some centres undefined) ?
Result block: 0.987

Query block: Queued: "N[C@@H](CCC(=O)N[C@@H](CS)C(=O)NCC(=O)O)C(=O)O"
Result block: 0.988

Query block: Now consider "CN(C)CCCN1c2ccccc2CCc2ccccc21" .
Result block: 1.01

Query block: Let us now turn to "COc1ccc([C@@H]2CC(=O)c3c(O)cc(O[C@@H]4O[C@H](CO[C@H]5O[C@@H](C)[C@H](O)[C@@H](O)[C@H]5O)[C@@H](O)[C@H](O)[C@H]4O)cc3O2)cc1O"
Result block: 0.965

Query block: Try this compound too: "CN(C)CCCN1c2ccccc2Sc2ccc(Cl)cc21"
Result block: 0.562
